B1: C8orf76 (parent)
chain: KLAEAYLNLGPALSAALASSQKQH

# Variants of: B1
# method-description: protein stability index of a GFP-peptide fusion (GPS, HEK-293T) (PSI 1-6); higher = more stable;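 also: lentivirally expressed fusions sorted by FACS into six bins by GFP to DsRed ratio, PSI derived from sequencing read proportions per bin multiplied by bin number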
# details: c terminus: a fixed tail appended
Would you mind telling me the reported protein stability index of each entry?

Before answering, review these 2 worked examples.
1. KLVEAYLNLGPALSAALASSQKQH | 3.08
2. KLAEAYLNLGPALSAALASSPKQH | 2.18

Each variant below has a reported value. Please supply its protein stability index.
1. KLAEAYLNLGPALSWALASSQKQH
2. KLAEAYLNCGPALSAALASSQKQH
3. KLAEAYLNLGPPLSAALASSQKQH
4. KLAEAYLNLGPALSAALASSQIQH
5. KLAEAYLNLGPALSAALASSQKWH

[2.71, 1.36, 2.2, 3.1, 2.43]

Each variant below has a reported value. Please supply its protein stability index.
1. KLAEFYLNLGPALSAALASSQKQH
2. KLAEAYLNLGPALSAALISSQKQH
3. KLAEDYLNLGPALSAALASSQKQH
4. KLCEAYLNLGPALSAALASSQKQH
5. KLAEAYLNTGPALSAALASSQKQH
6. KLAEAYLNLGPALSAALAHSQKQH
7. KLAEAYLDLGPALSAALASSQKQH
8. KLAEAYLNSGPALSAALASSQKQH

1: 3.28; 2: 2.4; 3: 2.44; 4: 3.15; 5: 2.62; 6: 3.15; 7: 2.07; 8: 1.96

Each variant below has a reported value. Please supply its protein stability index.
1. KLAECYLNLGPALSAALASSQKQH
2. KLAEAYLNLGPELSAALASSQKQH
3. CLAEAYLNLGPALSAALASSQKQH
4. KLAEAYLNLGPATSAALASSQKQH
5. KLAEAYLNRGPALSAALASSQKQH
6. KLAEAYLNLGPASSAALASSQKQH
7. KLAEAYLNLGPALSAALASSQHQH

4.48
1.96
4.61
2.65
2.61
2.54
2.52

Each variant below has a reported value. Please supply its protein stability index.
1. KLAEAYLNLGPALSAANASSQKQH
2. KLLEAYLNLGPALSAALASSQKQH

1: 2.56; 2: 3.56
